List of kon values.
Molecular target: T1, human PAI-1 captured on immobilized human vitronectin (human, UniProt P04004 20-478)
T1 construct: non-covalent complex formed on the chip or plate; also called PAI-1/Vn complex; Vn captured hPAI-1
T1 sequence (chain, as listed by the source limits assumed, chain 1 of 2): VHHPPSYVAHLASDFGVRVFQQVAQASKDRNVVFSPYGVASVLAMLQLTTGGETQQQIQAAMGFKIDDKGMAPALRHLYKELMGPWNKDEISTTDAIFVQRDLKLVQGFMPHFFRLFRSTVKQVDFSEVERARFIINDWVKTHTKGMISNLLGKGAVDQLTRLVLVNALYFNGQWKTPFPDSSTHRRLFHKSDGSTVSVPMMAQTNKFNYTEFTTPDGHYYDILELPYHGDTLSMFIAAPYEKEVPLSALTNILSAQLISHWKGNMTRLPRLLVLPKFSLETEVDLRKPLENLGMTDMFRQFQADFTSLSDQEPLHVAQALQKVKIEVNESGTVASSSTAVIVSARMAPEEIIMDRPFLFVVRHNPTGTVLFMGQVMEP
T1 sequence (P04004 20-478 limits assumed, chain 2 of 2): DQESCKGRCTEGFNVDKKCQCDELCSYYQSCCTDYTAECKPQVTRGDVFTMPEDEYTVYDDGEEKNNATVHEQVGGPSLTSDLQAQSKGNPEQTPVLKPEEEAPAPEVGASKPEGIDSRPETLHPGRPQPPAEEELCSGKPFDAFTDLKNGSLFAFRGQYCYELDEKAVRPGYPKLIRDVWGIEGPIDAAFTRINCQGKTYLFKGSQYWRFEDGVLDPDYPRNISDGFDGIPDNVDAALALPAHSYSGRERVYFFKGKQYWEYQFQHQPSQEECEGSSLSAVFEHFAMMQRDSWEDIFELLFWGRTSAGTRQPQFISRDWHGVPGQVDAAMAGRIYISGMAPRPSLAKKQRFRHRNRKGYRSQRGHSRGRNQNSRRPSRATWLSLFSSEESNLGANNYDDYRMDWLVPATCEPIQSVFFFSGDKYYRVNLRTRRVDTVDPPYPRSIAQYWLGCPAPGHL
Assay: Biacore, hPAI-1 on vitronectin chip, 1:1 model

binder: A44-hv9 (antibody, V domains shown, humanized A44, HEK293; constant regions as for A44-hv1; also called LC5b x HC5b; variant 9) VH: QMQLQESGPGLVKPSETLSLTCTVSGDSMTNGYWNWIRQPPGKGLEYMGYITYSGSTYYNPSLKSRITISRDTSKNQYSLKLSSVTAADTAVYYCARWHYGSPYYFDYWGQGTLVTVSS VL: DIQMTQSPSSLSASVGDRVTITCKASQDINSYLSWLQQKPGKAPKTLIYRANRSVDGVPSRFSGSGSGQDYTFTISSLQPEDIATYYCLQYDEFPPTFGGGTKVEIK
kon (M⁻¹ s⁻¹): 6.36e+06
//
binder: A44-hv6 (antibody, V domains shown, humanized A44, HEK293; constant regions as for A44-hv1; also called LC3 x HC3; variant 6) VH: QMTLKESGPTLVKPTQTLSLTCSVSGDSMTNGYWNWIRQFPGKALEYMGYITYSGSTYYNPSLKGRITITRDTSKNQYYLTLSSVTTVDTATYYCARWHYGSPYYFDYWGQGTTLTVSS VL: DIKMTQSPSSLSASVGDRVTITCKASQDINSYLSWLQQKPGKSPKTLIYRANRSVDGVPSRFSGSGSGQDYSLTISSLQPEDLATYYCLQYDEFPPTFGGGTKLEIK
kon (M⁻¹ s⁻¹): 4.38e+06
//
binder: A44-hv12 (antibody, V domains shown, humanized A44, HEK293; constant regions as for A44-hv1; also called LC4 x HC3; variant 12) VH: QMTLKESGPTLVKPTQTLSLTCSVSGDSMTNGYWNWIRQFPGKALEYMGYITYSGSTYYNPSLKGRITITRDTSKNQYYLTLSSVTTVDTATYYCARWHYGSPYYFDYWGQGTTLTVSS VL: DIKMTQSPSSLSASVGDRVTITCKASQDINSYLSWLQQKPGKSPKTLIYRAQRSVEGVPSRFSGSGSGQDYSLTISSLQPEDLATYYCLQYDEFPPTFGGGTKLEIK
kon (M⁻¹ s⁻¹): 5.15e+06

Where do the numbers come from? From patent US20160200831A1.
